Taken from patent US10125134B2.

# testSystem: KRas G12C (Homo sapiens, UniProt P01116, C118S/C51S/C80L/G12C)
# experimentSummary: KRas G12C Modification Assay (LCMS detection of covalent adduct)
# Assay type: binding
# conditionParameters: normalized percent of control; tested at 5 μM concentration for 3 hours
# Description: A 10 μL aliquot of each protein solution was then transferred to a 384 well microtiter plate. Initial compound stocks were generated at fifty times their desired final assay concentration in DMSO. […] Final data analysis was a multistep process in the Spotfire® data analysis software package. Briefly, each protein mass was calculated as a percent of the total signal of that sample, that percentage was then normalized to the percentage of signal of the protein in the absence of reactive compounds. […]
measuredProperty: POC

Some solved entries appear below for comparison.
{"compound": "C=CC(=O)N1CCN(c2nc(OCCN3CCC[C@H](OC)C3)nc3c2CCN(c2cc(O)cc4ccccc24)C3)CC1", "testSystem": "KRas G12C (Homo sapiens, UniProt P01116, C118S/C51S/C80L/G12C)", "measuredProperty": "POC", "experimentalValue": "C (“C”>50% POC)"}
{"compound": "C=CC(=O)N1CCN(c2nc(OC[C@@H]3[C@H](F)CCN3C)nc3c2CCN(c2cccc4ccccc24)C3)C[C@@H]1CC#N", "testSystem": "KRas G12C (Homo sapiens, UniProt P01116, C118S/C51S/C80L/G12C)", "measuredProperty": "POC", "experimentalValue": "C (“C”>50% POC)"}
{"compound": "C=CC(=O)N1CCN(c2nc(OC[C@@H]3CCN(C)C3)nc3c2CCN(c2cc(O)cc4ccccc24)C3)CC1", "testSystem": "KRas G12C (Homo sapiens, UniProt P01116, C118S/C51S/C80L/G12C)", "measuredProperty": "POC", "experimentalValue": "C (“C”>50% POC)"}
{"compound": "C=CC(=O)N1CCN(c2nc(OC[C@@H]3CCCN3C)nc3c2CCN(c2cnccc2C2CC2)C3)C[C@@H]1CC#N", "testSystem": "KRas G12C (Homo sapiens, UniProt P01116, C118S/C51S/C80L/G12C)", "measuredProperty": "POC", "experimentalValue": "C (“C”>50% POC)"}
{"compound": "C=CC(=O)N1CCN(c2nc(OC[C@]3(C)CCCN3C)nc3c2CCN(c2cccc4ccccc24)C3)CC1CC#N (stereo partly shown)", "testSystem": "KRas G12C (Homo sapiens, UniProt P01116, C118S/C51S/C80L/G12C)", "measuredProperty": "POC", "experimentalValue": "C (“C”>50% POC)"}

Note: attention shifts to another entry.
Indicate its recorded POC; the compound in question is C=CC(=O)N1CCN(c2nc(OC[C@@H]3CCCN3C)nc3c2CCN(c2cccc(F)c2C(F)(F)F)C3)CC1CC#N (stereo partly shown)
C (“C”>50% POC)

###

# testSystem: KRas G12C (Homo sapiens, UniProt P01116, C118S/C51S/C80L/G12C)
# experimentSummary: KRas G12C Modification Assay (LCMS detection of covalent adduct)
# Type: binding
# conditionParameters: normalized percent of control; tested at 5 μM concentration for 3 hours

{"compound": "C=CC(=O)N1CCN(c2nc(OCCN3CCN(C(C)=O)CC3)nc3c2CCN(c2cc(O)cc4ccccc24)C3)CC1", "POC": "C (“C”>50% POC)"}
{"compound": "C=CC(=O)N1CCN(c2nc(OC[C@@H]3CCCN3C)nc3c2CCN(c2cccc(Cl)c2C)C3)C[C@@H]1CC#N", "POC": "C (“C”>50% POC)"}
{"compound": "C=CC(=O)N1CCN(c2nc(OC[C@H]3CCCN3C)nc3c2CCN(c2ccc(F)c4ccccc24)C3)C[C@@H]1CC#N", "POC": "C (“C”>50% POC)"}

###

# Tested on: NCI-H358 cells (express KRas G12C), Phospho-ERK
# experimentSummary: Cellular inhibition of KRas G12C: Phospho-ERK in NCI-H358 cells
# Type: cell-based
# conditionParameters: Homo sapiens, NCI-H358, 3 h, pERK(Thr202/Tyr204) normalized with GAPDH; NCI-H358 cells; 3 hours; read-out: IC50
Structures can show the parent of a compound that is named as a salt.
Give measured IC50 for each item. Keep answers brief.

Indicate its recorded IC50; the compound in question is `C=CC(=O)N1CCN(c2nc(OCCN3CCCCC3)nc3c2CCN(c2cccc4cccc(Cl)c24)C3)C[C@@H]1CC#N`
0.0001 to 1 µM

Indicate its recorded IC50; the compound in question is `C=CC(=O)N1CCN(c2nc(OC[C@H]3CCCN3CCO)nc3c2CCN(c2cccc4ccccc24)C3)C[C@@H]1CC#N`
0.0001 to 1 µM

Indicate its recorded IC50; the compound in question is C=CC(=O)N1CCN(c2nc(OC[C@@H]3CCCN3CC(=O)N(C)C)nc3c2CCN(c2cccc4ccccc24)C3)CC1CC#N (stereo partly shown)
0.0001 to 1 µM

Indicate its recorded IC50; the compound in question is `C=CC(=O)N1CCN(c2nc(OCCN3CCC[C@H](F)C3)nc3c2CCN(c2cc(O)cc4ccccc24)C3)CC1`
0.0001 to 1 µM

Indicate its recorded IC50; the compound in question is `C=CC(=O)N1CCN(c2nc(OCCN3CCC(F)(F)CC3)nc3c2CCN(c2cc(O)cc4ccccc24)C3)CC1`
> 1 µM

Indicate its recorded IC50; the compound in question is `C=CC(=O)N1CCN(c2nc(O[C@H](C)CN3CC[C@@H](OC)C3)nc3c2CCN(c2cc(O)cc4ccccc24)C3)CC1`
> 1 µM

Indicate its recorded IC50; the compound in question is `Cc1cccc2cccc(N3CCc4c(nc(OC[C@@H]5CCCN5C)nc4N4CCN(C(=O)/C=C/CN(C)C)[C@@H](CC#N)C4)C3)c12`
0.0001 to 1 µM

Indicate its recorded IC50; the compound in question is C=CC(=O)N1CCN(c2nc(OCC3CCN(C)C3)nc3c2CCN(c2cc(O)cc4ccccc24)C3)CC1 (stereo not shown)
0.0001 to 1 µM

Indicate its recorded IC50; the compound in question is `C=CC(=O)N1CCN(c2nc(OC[C@@H]3CCN(C)C3)nc3c2CCN(c2cccc4cccc(Cl)c24)C3)C[C@@H]1CC#N`
0.0001 to 1 µM

Indicate its recorded IC50; the compound in question is `C=CC(=O)N1CCN(c2nc(OC[C@H]3CCCN3C)nc3c2CCN(c2cccc(F)c2C(F)(F)F)C3)C[C@@H]1CC#N`
0.0001 to 1 µM

Indicate its recorded IC50; the compound in question is C=CC(=O)N1CCN(c2nc(OC[C@@H]3CCCN3C)nc3c2CCN(c2c(C)ccc4cn[nH]c24)C3)CC1CC#N (stereo partly shown)
0.0001 to 1 µM

Indicate its recorded IC50; the compound in question is `C=CC(=O)N1CCN(c2nc(O[C@H](CC)CN(C)C)nc3c2CCN(c2cc(O)cc4ccccc24)C3)CC1`
> 1 µM

Indicate its recorded IC50; the compound in question is C=CC(=O)N1CCN(c2nc(OCCN(C)C)nc3c2CCN(c2cc(O)cc4ccccc24)C3)C(CCO)C1 (stereo not shown)
> 1 µM

Indicate its recorded IC50; the compound in question is `C=CC(=O)N1CCN(c2nc(OC[C@@H]3CCCN3CCO)nc3c2CCN(c2cccc4ccccc24)C3)C[C@@H]1CC#N`
0.0001 to 1 µM

Indicate its recorded IC50; the compound in question is `C=CC(=O)N1CCN(c2ncnc3c2CCN(c2cc(O)ccc2F)C3)CC1`
> 1 µM

Indicate its recorded IC50; the compound in question is C=CC(=O)N1CCN(c2nc(OC[C@@H]3CCN(C)C3)nc3c2CCN(c2ccccc2C(F)(F)F)C3)CC1CC#N (stereo partly shown)
0.0001 to 1 µM

Indicate its recorded IC50; the compound in question is `C=CC(=O)N1CCN(c2nc(NC[C@@H]3CCCN3C)nc3c2CCN(c2cccc4ccccc24)C3)C[C@@H]1CC#N`
> 1 µM

Indicate its recorded IC50; the compound in question is C=CC(=O)N1CCN(c2nc(OCCCCN3CCOCC3)nc3c2CCN(c2cc(O)cc4ccccc24)C3)CC1 [Example 35, trifluoroacetate]
> 1 µM

Indicate its recorded IC50; the compound in question is C=CC(=O)N1CCN(c2nc(OC(C)CCN(C)C)nc3c2CCN(c2cc(O)cc4ccccc24)C3)CC1 (stereo not shown)
0.0001 to 1 µM

Indicate its recorded IC50; the compound in question is C=CC(=O)N1CCN(c2nc(OC[C@@H]3CCCN3C)nc3c2CCN(c2cccc4cc(F)ccc24)C3)CC1CC#N (stereo partly shown)
0.0001 to 1 µM

Indicate its recorded IC50; the compound in question is `C=CC(=O)N1CCN(c2nc(O[C@H](C)CN3CCCC3)nc3c2CCN(c2cc(O)cc4ccccc24)C3)CC1`
0.0001 to 1 µM

Indicate its recorded IC50; the compound in question is C=CC(=O)N1CCN(c2nc(OC[C@@H]3CCCN3C)nc3c2CCN(c2cccc(F)c2OC)C3)CC1CC#N (stereo partly shown)
0.0001 to 1 µM

Indicate its recorded IC50; the compound in question is C=CC(=O)N1CCN(c2nc(OCCCN3C[C@@H]4C[C@H]3CO4)nc3c2CCN(c2cccc4ccccc24)C3)CC1CC#N (stereo partly shown)
0.0001 to 1 µM

Indicate its recorded IC50; the compound in question is `C=CC(=O)N1CC2(C1)CN(c1nc(OCCCN(C)C)nc3c1CCN(c1cc(O)cc4ccccc14)C3)C2`
> 1 µM

Indicate its recorded IC50; the compound in question is C=CC(=O)N1CCN(c2nc(OC[C@@H]3CCCN3C)nc3c2CCN(c2cccc4ccc(OC)cc24)C3)CC1CC#N (stereo partly shown)
> 1 µM

Indicate its recorded IC50; the compound in question is C=CC(=O)N1CCN(c2nc(OCC3CCN(CCO)C3)nc3c2CCN(c2cc(O)cc4ccccc24)C3)CC1 (stereo not shown)
> 1 µM

Indicate its recorded IC50; the compound in question is `C=CC(=O)N1CCN(c2nc(OC[C@@H]3C[C@@H](F)CN3C)nc3c2CCN(c2cc(O)cc4ccccc24)C3)CC1`
0.0001 to 1 µM

Indicate its recorded IC50; the compound in question is `C=CC(=O)N1CCN(c2nc(OC[C@@H]3CCCN3C)nc3c2CCN(c2cccc4ccccc24)C3)C[C@@H]1CCOC`
> 1 µM
